- testMethodNotes: 2-way crossover study of single-dose betrixaban alone and following 5 days of ketoconazole in healthy subjects (plasma/urine PK, safety)
- Type: in vivo, human
- experimentalConditions: human, plasma, oral, ketoconazole Cmax, geometric LS mean, Treatment T: ketoconazole 200 mg co-administered with 40-mg betrixaban
measuredParameter: Cmax
Reply with a number, then the unit it belongs to.

*Q* What value of measured Cmax is listed for CC(=O)N1CCN(c2ccc(OCC3COC(Cn4ccnc4)(c4ccc(Cl)cc4Cl)O3)cc2)CC1 (stereo not shown) [ketoconazole] ?
*A* 6420 ng/mL

----------
- testMethodNotes: 3-period crossover study of betrixaban and digoxin alone and in combination for 7 days in healthy subjects
- Format: in vivo, human
- experimentalConditions: human, plasma, oral, digoxin median tmax, second value of pair (digoxin alone by order)
measuredParameter: Tmax (h)
Entry rule: numbers only, all in h.

*Q* What value of measured Tmax is listed for C[C@H]1O[C@@H](O[C@H]2[C@@H](O)C[C@H](O[C@H]3[C@@H](O)C[C@H](O[C@H]4CC[C@@]5(C)[C@H](CC[C@@H]6[C@@H]5C[C@@H](O)[C@]5(C)[C@@H](C7=CC(=O)OC7)CC[C@]65O)C4)O[C@@H]3C)O[C@@H]2C)C[C@H](O)[C@@H]1O ?
*A* 1.01

----------
- testMethodNotes: 2-way crossover study of single-dose betrixaban alone and following 5 days of ketoconazole in healthy subjects (plasma/urine PK, safety)
- Type: in vivo, human
- experimentalConditions: human, plasma, oral
measuredParameter: Tmax (h)
Entry rule: numbers only, all in h.

*Q* What value of measured Tmax is listed for CC(=O)N1CCN(c2ccc(OCC3COC(Cn4ccnc4)(c4ccc(Cl)cc4Cl)O3)cc2)CC1 (stereo not shown) ?
*A* 2

----------
- testMethodNotes: 2-way crossover study of single-dose betrixaban alone and following 5 days of ketoconazole in healthy subjects (plasma/urine PK, safety)
- Type: in vivo, human
- experimentalConditions: human, plasma, oral, 200 mg
measuredParameter: Tmax (h)
Entry rule: numbers only, all in h.

*Q* What value of measured Tmax is listed for CC(=O)N1CCN(c2ccc(OCC3COC(Cn4ccnc4)(c4ccc(Cl)cc4Cl)O3)cc2)CC1 (stereo not shown) ?
*A* 2

----------
- testMethodNotes: 2-way crossover study of single-dose betrixaban alone and following 5 days of ketoconazole in healthy subjects (plasma/urine PK, safety)
- Assay type: in vivo, human
- experimentalConditions: human, plasma, oral, 200 mg, ketoconazole Cmax, mean (SD), Day-1
measuredParameter: Cmax (ng/mL)
Entry rule: numbers only, all in ng/mL.

*Q* What value of measured Cmax is listed for CC(=O)N1CCN(c2ccc(OCC3COC(Cn4ccnc4)(c4ccc(Cl)cc4Cl)O3)cc2)CC1 (stereo not shown) ?
*A* 5900

----------
- testMethodNotes: 2-way crossover study of single-dose betrixaban alone and following 5 days of ketoconazole in healthy subjects (plasma/urine PK, safety)
- Type: in vivo, human
- experimentalConditions: human, plasma, oral, ketoconazole AUC(0-12), geometric LS mean, Treatment T: ketoconazole 200 mg co-administered with 40-mg betrixaban
measuredParameter: AUC(0-t) (ng·h/mL)
Entry rule: numbers only, all in ng·h/mL.

*Q* What value of measured AUC(0-t) is listed for CC(=O)N1CCN(c2ccc(OCC3COC(Cn4ccnc4)(c4ccc(Cl)cc4Cl)O3)cc2)CC1 (stereo not shown) [ketoconazole] ?
*A* 37300

----------
- testMethodNotes: 2-way crossover study of single-dose betrixaban alone and following 5 days of ketoconazole in healthy subjects (plasma/urine PK, safety)
- Type: in vivo, human
- experimentalConditions: human, plasma, oral, 200 mg, ketoconazole Cmax, geometric LS mean, Treatment R: ketoconazole 200 mg alone
measuredParameter: Cmax (ng/mL)
Entry rule: numbers only, all in ng/mL.

*Q* What value of measured Cmax is listed for CC(=O)N1CCN(c2ccc(OCC3COC(Cn4ccnc4)(c4ccc(Cl)cc4Cl)O3)cc2)CC1 (stereo not shown) [ketoconazole] ?
*A* 5260
